Target: UniProt:P08183
Conditions: 1 h, 10 µM
quantity.kind: FIR Lucena 1
One number for each entry.

Example entries and their recorded answers appear below.
compound	FIR Lucena 1
COc1cc2cc(CNc3ccc(Nc4nccc(-c5ccc(Cl)cc5)n4)cc3)c(=O)[nH]c2cc1OC	1.28
COc1cc2cc(CN3CCN(c4nccc(-c5ccc6ccccc6c5)n4)CC3)c(=O)[nH]c2cc1OC	1.29
Clc1ccc(-c2ccnc(N3CCNCC3)n2)cc1	1.38
COc1ccc2[nH]c(=O)c(CNc3ccc(Nc4nccc(-c5ccc(Cl)cc5)n4)cc3)cc2c1	1.23

The following compounds each have a reported value; give each one's FIR Lucena 1.
1. COc1cc2cc(CN3CCN(c4nccc(-c5ccc(Cl)cc5)n4)CC3)c(=O)[nH]c2cc1OC
2. NCCN1CCN(c2nccc(-c3ccc(Cl)cc3)n2)CC1
3. COc1cc2cc(COc3nccc(-c4ccc(Cl)cc4)n3)c(=O)[nH]c2cc1OC
4. COc1ccc2[nH]c(=O)c(CN3CCN(c4nccc(-c5ccc6ccccc6c5)n4)CC3)cc2c1
5. COc1ccc2[nH]c(=O)c(CN3CCN(c4nccc(-c5ccc(Cl)cc5)n4)CC3)cc2c1
6. c1ccc2cc(-c3ccnc(N4CCNCC4)n3)ccc2c1
7. O=c1[nH]c2ccccc2cc1CN1CCN(c2nccc(-c3ccc(Cl)cc3)n2)CC1
8. CC(=O)c1ccc(Nc2nccc(-c3ccc4ccccc4c3)n2)cc1

1. 1.49
2. 1.30
3. 1.30
4. 1.25
5. 1.44
6. 1.42
7. 1.30
8. 1.24

Items follow; give FIR Lucena 1 for each.
1. O=c1[nH]c2ccccc2cc1CNc1ccc(Nc2nccc(-c3ccc4ccccc4c3)n2)cc1
2. COc1ccc2[nH]c(=O)c(CNc3ccc(Nc4nccc(-c5ccc6ccccc6c5)n4)cc3)cc2c1
3. O=c1[nH]c2ccccc2cc1CNc1ccc(Nc2nccc(-c3ccc(Cl)cc3)n2)cc1
4. NCCN1CCN(c2nccc(-c3ccc4ccccc4c3)n2)CC1 [Compound 10a]

1. 1.10
2. 1.25
3. 1.03
4. 1.63

I have 2 compounds here; please give me FIR Lucena 1 for each one.
1. O=c1[nH]c2ccccc2cc1CN1CCN(c2nccc(-c3ccc4ccccc4c3)n2)CC1
2. COc1cc2cc(CNc3ccc(Nc4nccc(-c5ccc6ccccc6c5)n4)cc3)c(=O)[nH]c2cc1OC

1.52
1.24

* * *

Provide the reported FIR Lucena 1 of each item.
Biological target: P-gp (Homo sapiens, UniProt P08183)
Sequence (P08183 whole entry): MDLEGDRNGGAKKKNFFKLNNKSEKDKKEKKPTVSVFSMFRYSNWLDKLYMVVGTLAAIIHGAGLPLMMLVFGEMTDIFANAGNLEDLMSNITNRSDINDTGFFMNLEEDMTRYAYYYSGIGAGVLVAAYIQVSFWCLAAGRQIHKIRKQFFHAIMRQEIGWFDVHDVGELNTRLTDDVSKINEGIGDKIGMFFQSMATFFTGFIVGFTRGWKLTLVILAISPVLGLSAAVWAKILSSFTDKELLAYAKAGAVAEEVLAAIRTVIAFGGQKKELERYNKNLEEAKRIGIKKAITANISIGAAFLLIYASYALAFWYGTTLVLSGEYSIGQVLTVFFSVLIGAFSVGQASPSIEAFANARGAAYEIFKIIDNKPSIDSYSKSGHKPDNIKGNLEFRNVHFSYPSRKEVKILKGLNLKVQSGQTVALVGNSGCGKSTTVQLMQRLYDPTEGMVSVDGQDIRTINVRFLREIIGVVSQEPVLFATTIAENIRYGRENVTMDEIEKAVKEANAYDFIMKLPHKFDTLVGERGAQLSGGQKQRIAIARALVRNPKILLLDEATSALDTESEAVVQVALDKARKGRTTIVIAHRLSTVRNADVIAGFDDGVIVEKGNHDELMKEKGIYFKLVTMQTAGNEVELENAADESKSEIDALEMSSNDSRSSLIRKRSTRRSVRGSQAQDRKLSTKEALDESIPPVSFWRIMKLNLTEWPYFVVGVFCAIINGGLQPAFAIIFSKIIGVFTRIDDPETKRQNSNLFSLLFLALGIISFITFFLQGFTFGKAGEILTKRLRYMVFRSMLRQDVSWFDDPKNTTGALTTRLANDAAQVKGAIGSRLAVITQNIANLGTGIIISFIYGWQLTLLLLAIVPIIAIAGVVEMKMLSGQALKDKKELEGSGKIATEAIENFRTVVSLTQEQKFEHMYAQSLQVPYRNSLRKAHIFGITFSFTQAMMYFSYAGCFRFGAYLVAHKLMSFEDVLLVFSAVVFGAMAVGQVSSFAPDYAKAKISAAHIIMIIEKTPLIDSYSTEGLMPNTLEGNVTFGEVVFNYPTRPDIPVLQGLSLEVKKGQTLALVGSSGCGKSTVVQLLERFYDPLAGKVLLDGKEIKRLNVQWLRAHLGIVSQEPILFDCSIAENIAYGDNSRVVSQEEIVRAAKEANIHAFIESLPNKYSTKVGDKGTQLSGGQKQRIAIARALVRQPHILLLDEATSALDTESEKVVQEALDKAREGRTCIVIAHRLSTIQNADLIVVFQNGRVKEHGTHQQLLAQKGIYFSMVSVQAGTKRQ
Conditions: 1 h, 0.31 µM
One number for each entry.

compound	FIR Lucena 1
COc1ccc2[nH]c(=O)c(CNc3ccc(Nc4nccc(-c5ccc6ccccc6c5)n4)cc3)cc2c1 [Compound 5b]	1.07
COc1cc2cc(CNc3ccc(Nc4nccc(-c5ccc(Cl)cc5)n4)cc3)c(=O)[nH]c2cc1OC [Compound 4c]	1.03

Give one value of FIR Lucena 1 per listed compound.
1. COc1cc2cc(CN3CCN(c4nccc(-c5ccc6ccccc6c5)n4)CC3)c(=O)[nH]c2cc1OC [Compound 7c]
2. COc1ccc2[nH]c(=O)c(CN3CCN(c4nccc(-c5ccc6ccccc6c5)n4)CC3)cc2c1 [Compound 7b]
3. COc1cc2cc(CN3CCN(c4nccc(-c5ccc(Cl)cc5)n4)CC3)c(=O)[nH]c2cc1OC [Compound 6c]

1. 1.08
2. 1.10
3. 1.00

// field: FIR Lucena 1; key: COc1cc2cc(CNc3ccc(Nc4nccc(-c5ccc6ccccc6c5)n4)cc3)c(=O)[nH]c2cc1OC [Compound 5c] ; value = 1.12

* * *

Would you mind telling me the reported FIR Lucena 1 of each entry?
Target: P-gp (Homo sapiens)
Details: 1 h, 1.25 µM
Answers are plain numbers.

Below are worked cases with known answers.
compound	assay.target	FIR Lucena 1
COc1ccc2[nH]c(=O)c(CN3CCN(c4nccc(-c5ccc(Cl)cc5)n4)CC3)cc2c1	P-gp (Homo sapiens)	1.01
COc1cc2cc(CN3CCN(c4nccc(-c5ccc6ccccc6c5)n4)CC3)c(=O)[nH]c2cc1OC	P-gp (Homo sapiens)	1.24
COc1ccc2[nH]c(=O)c(CNc3ccc(Nc4nccc(-c5ccc(Cl)cc5)n4)cc3)cc2c1	P-gp (Homo sapiens)	1.10
NCCN1CCN(c2nccc(-c3ccc4ccccc4c3)n2)CC1 [Compound 10a]	P-gp (Homo sapiens)	1.13

Now for a further compound.
# compound O=c1[nH]c2ccccc2cc1CNc1ccc(Nc2nccc(-c3ccc4ccccc4c3)n2)cc1 ; its FIR Lucena 1 = 0.95

* * *

Test: MTT cytotoxicity assay in K562
Type: cell-based
Conditions: human, K562 cells, read-out: IC50 (cytotoxicity) against K562
quantity.kind: IC50 at 48 h (µM)
Numbers only, in µM.

compound	IC50 at 48 h, µM
NCCN1CCN(c2nccc(-c3ccc4ccccc4c3)n2)CC1 [Compound 10a]	17.7

Field: IC50 at 48 h. Fill in for each record below.
1. COc1cccc2c1C(=O)c1c(O)c3c(c(O)c1C2=O)C[C@@](O)(C(=O)CO)C[C@@H]3O[C@H]1C[C@H](N)[C@H](O)[C@H](C)O1 [doxorubicin, reference compound]
2. COc1cc2cc(COc3nccc(-c4ccc(Cl)cc4)n3)c(=O)[nH]c2cc1OC [Compound 11]
3. COc1cc2cc(CN3CCN(c4nccc(-c5ccc6ccccc6c5)n4)CC3)c(=O)[nH]c2cc1OC [Compound 7c]

0.64
3.8
6.7

* * *

Assignment: determine reported FIR Lucena 1 for the given molecules.
Target: P-gp (Homo sapiens, UniProt P08183)
Settings: 1 h, 5 µM

Example results:
molecule	FIR Lucena 1
COc1ccc2[nH]c(=O)c(CNc3ccc(Nc4nccc(-c5ccc(Cl)cc5)n4)cc3)cc2c1	1.20 ± 0.06
O=c1[nH]c2ccccc2cc1CN1CCN(c2nccc(-c3ccc4ccccc4c3)n2)CC1	1.38 ± 0.11
NCCN1CCN(c2nccc(-c3ccc4ccccc4c3)n2)CC1 [Compound 10a]	1.30 ± 0.08
NCCN1CCN(c2nccc(-c3ccc(Cl)cc3)n2)CC1	1.41 ± 0.09
COc1ccc2[nH]c(=O)c(CNc3ccc(Nc4nccc(-c5ccc6ccccc6c5)n4)cc3)cc2c1	1.31 ± 0.08

For every item in the list below, what is its measured FIR Lucena 1?
1. O=c1[nH]c2ccccc2cc1CN1CCN(c2nccc(-c3ccc(Cl)cc3)n2)CC1
2. COc1ccc2[nH]c(=O)c(CN3CCN(c4nccc(-c5ccc6ccccc6c5)n4)CC3)cc2c1
3. O=c1[nH]c2ccccc2cc1CNc1ccc(Nc2nccc(-c3ccc4ccccc4c3)n2)cc1
4. COc1cc2cc(CNc3ccc(Nc4nccc(-c5ccc(Cl)cc5)n4)cc3)c(=O)[nH]c2cc1OC
5. Clc1ccc(-c2ccnc(N3CCNCC3)n2)cc1
6. COc1cc2cc(CN3CCN(c4nccc(-c5ccc(Cl)cc5)n4)CC3)c(=O)[nH]c2cc1OC

1.15 ± 0.05
1.26 ± 0.04
1.06 ± 0.01
1.32 ± 0.09
1.18 ± 0.03
1.32 ± 0.09

* * *

Molecular target: P-gp (Homo sapiens)
Details: 1 h, 1.25 µM
Would you kindly list FIR Lucena 1 for each of these compounds?
Give bare numbers.

structure.string	quantity.kind	value.measured
NCCN1CCN(c2nccc(-c3ccc(Cl)cc3)n2)CC1	FIR Lucena 1	1.11
COc1ccc2[nH]c(=O)c(CNc3ccc(Nc4nccc(-c5ccc6ccccc6c5)n4)cc3)cc2c1	FIR Lucena 1	1.21
COc1cc2cc(COc3nccc(-c4ccc(Cl)cc4)n3)c(=O)[nH]c2cc1OC	FIR Lucena 1	1.14
Clc1ccc(-c2ccnc(N3CCNCC3)n2)cc1	FIR Lucena 1	1.09

Reported P-gp (Homo sapiens) FIR Lucena 1 for item COc1cc2cc(CN3CCN(c4nccc(-c5ccc(Cl)cc5)n4)CC3)c(=O)[nH]c2cc1OC was 1.19

* * *

Target: P-gp (Homo sapiens)
Settings: 1 h, 1.25 µM
quantity.kind: FIR Lucena 1
Give bare numbers.

structure.string	value.measured
COc1ccc2[nH]c(=O)c(CN3CCN(c4nccc(-c5ccc6ccccc6c5)n4)CC3)cc2c1	1.18
COc1cc2cc(CNc3ccc(Nc4nccc(-c5ccc(Cl)cc5)n4)cc3)c(=O)[nH]c2cc1OC	1.24
O=c1[nH]c2ccccc2cc1CN1CCN(c2nccc(-c3ccc4ccccc4c3)n2)CC1	1.10

The recorded FIR Lucena 1 for COc1cc2cc(CNc3ccc(Nc4nccc(-c5ccc6ccccc6c5)n4)cc3)c(=O)[nH]c2cc1OC is 1.22

* * *

System: K562 cells
Assay: Doxorubicin intracellular accumulation assay (flow cytometry) in K562
Format: cell-based
Parameters: key: MFI with inhibitor / MFI of Dox alone
Conditions: compound 20 µM; 5 μM Dox
Would you mind telling me the reported FIR K562 of each entry?
Give bare numbers.

Look over these answered cases.
compound	FIR K562
COc1cc2cc(COc3nccc(-c4ccc(Cl)cc4)n3)c(=O)[nH]c2cc1OC	1.44
CC(=O)c1ccc(Nc2nccc(-c3ccc4ccccc4c3)n2)cc1	0.98
COc1ccc2[nH]c(=O)c(CNc3ccc(Nc4nccc(-c5ccc(Cl)cc5)n4)cc3)cc2c1	0.90
COc1ccc2[nH]c(=O)c(CNc3ccc(Nc4nccc(-c5ccc6ccccc6c5)n4)cc3)cc2c1	0.96
COc1cc2cc(CN3CCN(c4nccc(-c5ccc6ccccc6c5)n4)CC3)c(=O)[nH]c2cc1OC	1.04

// batch mode: one FIR K562 value per listed entry
1. c1ccc2cc(-c3ccnc(N4CCNCC4)n3)ccc2c1
2. O=c1[nH]c2ccccc2cc1CN1CCN(c2nccc(-c3ccc4ccccc4c3)n2)CC1
3. COc1ccc2[nH]c(=O)c(CN3CCN(c4nccc(-c5ccc(Cl)cc5)n4)CC3)cc2c1
4. COc1ccc(CCN(C)CCCC(C#N)(c2ccc(OC)c(OC)c2)C(C)C)cc1OC (stereo not drawn) [verapamil, reference compound]
5. COc1cc2cc(CNc3ccc(Nc4nccc(-c5ccc(Cl)cc5)n4)cc3)c(=O)[nH]c2cc1OC
6. NCCN1CCN(c2nccc(-c3ccc4ccccc4c3)n2)CC1 [Compound 10a]
7. O=c1[nH]c2ccccc2cc1CNc1ccc(Nc2nccc(-c3ccc(Cl)cc3)n2)cc1
8. O=c1[nH]c2ccccc2cc1CN1CCN(c2nccc(-c3ccc(Cl)cc3)n2)CC1

1: 1.20; 2: 1.02; 3: 0.94; 4: 1.08; 5: 0.93; 6: 1.26; 7: 0.89; 8: 0.92

Give measured FIR K562 for every item shown.
1. O=c1[nH]c2ccccc2cc1CNc1ccc(Nc2nccc(-c3ccc4ccccc4c3)n2)cc1
2. NCCN1CCN(c2nccc(-c3ccc(Cl)cc3)n2)CC1

1. 0.86
2. 1.18
